Biological target: T1, CD32B (FcγRII-B) (UniProt P31994 43-217, limits assumed)
T1 construct: No species or construct stated
T1 sequence (looked up): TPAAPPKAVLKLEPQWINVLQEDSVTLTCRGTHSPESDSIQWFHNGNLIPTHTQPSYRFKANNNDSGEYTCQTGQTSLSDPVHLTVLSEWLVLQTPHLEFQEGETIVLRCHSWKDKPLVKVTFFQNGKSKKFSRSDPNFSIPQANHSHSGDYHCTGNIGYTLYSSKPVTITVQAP
Test: Table 3; relative to wild-type Fc; method not stated
outcome measure: binding relative to wild-type Fc (fold)
Hey, just send me the number, nothing else.

Fc variant D270E G316D R416G (other, UniProt P01857-1 99-330, looked up, name in EU numbering, domain: Fc region; positions are EU index) EPKSCDKTHTCPPCPAPELLGGPSVFLFPPKPKDTLMISRTPEVTCVVVDVSHEEPEVKFNWYVDGVEVHNAKTKPREEQYNSTYRVVSVLTVLHQDWLNDKEYKCKVSNKALPAPIEKTISKAKGQPREPQVYTLPPSRDELTKNQVSLTCLVKGFYPSDIAVEWESNGQPENNYKTTPPVLDSDGSFFLYSKLTVDKSGWQQGNVFSCSVMHEALHNHYTQKSLSLSPGK
0.78
Fc variant F243L R255L D270E P396L (other, UniProt P01857-1 99-330, looked up, name in EU numbering, domain: Fc region; positions are EU index) EPKSCDKTHTCPPCPAPELLGGPSVFLLPPKPKDTLMISLTPEVTCVVVDVSHEEPEVKFNWYVDGVEVHNAKTKPREEQYNSTYRVVSVLTVLHQDWLNGKEYKCKVSNKALPAPIEKTISKAKGQPREPQVYTLPPSRDELTKNQVSLTCLVKGFYPSDIAVEWESNGQPENNYKTTPLVLDSDGSFFLYSKLTVDKSRWQQGNVFSCSVMHEALHNHYTQKSLSLSPGK
0.38

Proceed to the following item.
Task: Need binding relative to wild-type Fc (fold), item Fc variant F243L R292P Y300L V305I P396L (other, UniProt P01857-1 99-330, looked up, name in EU numbering, domain: Fc region) EPKSCDKTHTCPPCPAPELLGGPSVFLLPPKPKDTLMISRTPEVTCVVVDVSHEDPEVKFNWYVDGVEVHNAKTKPPEEQYNSTLRVVSILTVLHQDWLNGKEYKCKVSNKALPAPIEKTISKAKGQPREPQVYTLPPSRDELTKNQVSLTCLVKGFYPSDIAVEWESNGQPENNYKTTPLVLDSDGSFFLYSKLTVDKSRWQQGNVFSCSVMHEALHNHYTQKSLSLSPGK
Result: 1.38
